The origin of these recorded values is patent US20230029835A1.

# Experimental System: human TSLP recombinant protein (human, UniProt Q969D9 29-159, biotinylated in the blocking and cell-binding assays (sites not given))
# Assay Explanation: cell-based or functional assay
# reported STAT5 signal inhibition IC50; entries follow
Observed Property: STAT5 signal inhibition IC50 (nM)

{"Binder": "Ab23 (antibody, V domains shown, Humanized; also called h39G5VHv2/h71G4VKv1; h39G5VHv2/h71G4VKv1 hIgG1) VH: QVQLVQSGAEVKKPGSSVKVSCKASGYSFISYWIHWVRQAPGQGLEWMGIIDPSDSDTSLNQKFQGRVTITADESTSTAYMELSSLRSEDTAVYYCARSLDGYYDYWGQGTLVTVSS VL: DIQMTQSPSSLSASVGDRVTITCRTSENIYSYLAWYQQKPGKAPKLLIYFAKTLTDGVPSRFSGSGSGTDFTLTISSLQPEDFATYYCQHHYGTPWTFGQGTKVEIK", "Observed Property": "STAT5 signal inhibition IC50", "Reported Measurement": 0.17}
{"Binder": "Ab22 (antibody, V domains shown, Humanized; also called h39G5VHv1/h71G4VKv1; h39G5VHv1/h7IG4VKv1 hIgG1) VH: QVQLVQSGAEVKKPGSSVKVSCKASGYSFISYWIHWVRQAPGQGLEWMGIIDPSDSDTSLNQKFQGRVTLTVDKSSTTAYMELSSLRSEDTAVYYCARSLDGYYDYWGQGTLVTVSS VL: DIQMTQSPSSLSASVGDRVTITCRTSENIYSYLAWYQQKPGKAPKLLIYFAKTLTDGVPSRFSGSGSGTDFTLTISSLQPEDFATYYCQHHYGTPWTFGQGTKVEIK", "Observed Property": "STAT5 signal inhibition IC50", "Reported Measurement": 0.17}
{"Binder": "Murine anti-71G4 (mAb71G4) (antibody, V domains shown, also called murine antibody 71G4) VH: QVQLQQSGAELVMPGASVKMSCKASGYTFTDYWMHWVKQRPGQGLEWIGTIDNSDSDTTYNQKFKGKVTLTVDESSSTAYMQLSSLTSEDSAVYYCARSVDGYLDYWGQGTTLTVSS VL: EIQMTQSPASLSASVGETVTITCRTSENIYSYLAWYQQKQGKSPQLLVYFAKTLTDGVPSRLSGSGSGTQFSLKINSLQPEDFGSYYCQHHYGTPWTFGGGTKLEIK", "Observed Property": "STAT5 signal inhibition IC50", "Reported Measurement": 1.14}
{"Binder": "Murine anti-39G5 (mAb39G5) (antibody, V domains shown, also called murine antibody 39G5) VH: QVQLLQSGPQLVRPGASVKISCKASGYSFISYWIHWVKQRPGQGLEWIGIIDPSDSDTSLNQKFKDKATLTVDKSSTTAYIQLSSPTSEDSAVYYCARSLDGYYDYWGQGTTLTVSS VL: DIQMTQSPASLSASVGETVTITCRASENIYSYLAWYQQKQGKSPQLLVYNARTLPEGVPSRFSGSGSGTQFSLKINSLQPEDFGIYYCQHHYTTPWTFGGGTKLEIK", "Observed Property": "STAT5 signal inhibition IC50", "Reported Measurement": 4.92}
